Target: CDK1/Cyclin B1 (Homo sapiens)
Assay: CDK1/Cyclin B1 TR-FRET biochemical assay, 0.015 mM ATP
Settings: 0.15 μM Rb (Ser780)-biotin substrate, 120 min reaction, Table 1
IC50: recorded values
measurementKind: IC50 (µM)

molecule="CCc1cnc(C2CCC(c3cc(Nc4ccc5c(c4F)CS(=O)(=O)N5)n[nH]3)C2)o1 (stereo not drawn) [Example 144]" experimentalsystem="CDK1/Cyclin B1 (Homo sapiens)" reportedmeasurement=0.334
molecule="CC(C)(C)c1cnc([C@@H]2CC[C@H](c3cc(Nc4ccc5c(c4F)CS(=O)(=O)N5)n[nH]3)C2)o1 (relative stereo) [Example 145]" experimentalsystem="CDK1/Cyclin B1 (Homo sapiens)" reportedmeasurement=0.011
molecule="O=S1(=O)NCc2c1ccc(Nc1cc([C@H]3CC[C@@H](Oc4nnccc4-c4ccccc4)C3)[nH]n1)c2F (relative stereo) [Example 31]" experimentalsystem="CDK1/Cyclin B1 (Homo sapiens)" reportedmeasurement=0.073
molecule="O=S1(=O)NCc2c1ccc(Nc1cc([C@H]3CC[C@@H](Oc4cnccc4C4CC4)C3)[nH]n1)c2F (relative stereo) [Example 41]" experimentalsystem="CDK1/Cyclin B1 (Homo sapiens)" reportedmeasurement=0.474
molecule="O=S1(=O)NCc2c1ccc(Nc1cc([C@H]3CC[C@@H](Oc4ccsn4)C3)[nH]n1)c2F (relative stereo) [Example 50]" experimentalsystem="CDK1/Cyclin B1 (Homo sapiens)" reportedmeasurement=1.32
molecule="O=S1(=O)NCc2c1ccc(Nc1cc([C@H]3CC[C@@H](Oc4ccon4)C3)[nH]n1)c2F (relative stereo) [Example 48]" experimentalsystem="CDK1/Cyclin B1 (Homo sapiens)" reportedmeasurement=0.425

----------
Target: CDK1/Cyclin B1 (Homo sapiens, UniProt P06493)
Sequence (P06493 whole entry): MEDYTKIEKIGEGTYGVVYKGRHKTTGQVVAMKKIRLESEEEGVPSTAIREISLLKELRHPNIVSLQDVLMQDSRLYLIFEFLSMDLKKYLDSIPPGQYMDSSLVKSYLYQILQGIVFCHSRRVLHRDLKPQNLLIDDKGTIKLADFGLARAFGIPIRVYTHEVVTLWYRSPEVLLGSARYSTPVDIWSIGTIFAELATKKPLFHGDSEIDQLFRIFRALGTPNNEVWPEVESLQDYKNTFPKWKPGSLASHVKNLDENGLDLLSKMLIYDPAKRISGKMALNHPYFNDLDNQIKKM
Sequence (P14635 whole entry partner): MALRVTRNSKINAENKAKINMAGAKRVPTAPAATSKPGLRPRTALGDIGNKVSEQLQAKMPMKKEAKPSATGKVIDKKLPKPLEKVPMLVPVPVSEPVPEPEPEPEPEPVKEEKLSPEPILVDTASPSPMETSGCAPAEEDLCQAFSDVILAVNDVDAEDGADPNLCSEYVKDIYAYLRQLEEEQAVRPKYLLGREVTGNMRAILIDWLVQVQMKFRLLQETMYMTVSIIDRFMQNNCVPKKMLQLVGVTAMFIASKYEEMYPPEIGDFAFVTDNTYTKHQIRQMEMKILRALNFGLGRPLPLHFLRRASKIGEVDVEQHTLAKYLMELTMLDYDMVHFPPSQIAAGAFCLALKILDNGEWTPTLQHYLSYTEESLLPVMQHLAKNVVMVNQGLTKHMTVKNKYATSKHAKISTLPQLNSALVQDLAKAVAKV
Experiment: CDK1/Cyclin B1 TR-FRET biochemical assay, 1 mM ATP
Conditions: 0.15 μM Rb (Ser780)-biotin substrate, 90 min reaction, Table 2
measurementKind: IC50

compound="CC(C)(O)c1cnc(C2CCC(c3cc(Nc4ccc5c(c4F)CNS5(=O)=O)n[nH]3)C2)o1 (centres unmarked)" measurementkind=IC50 reportedmeasurement="7240 nM"
compound="CC(C)c1cnc(C2CCC(c3cc(Nc4cc5c(cc4F)S(=O)(=O)NC5)n[nH]3)C2)o1 (centres unmarked)" measurementkind=IC50 reportedmeasurement="> 10000 nM"
compound="CC(C)(C)c1ccc([C@@H]2CC[C@H](c3cc(Nc4ccc5c(c4F)CNS5(=O)=O)n[nH]3)C2)o1 (relative stereo)" measurementkind=IC50 reportedmeasurement="> 10000 nM"
compound="CC(C)(C)c1nnc([C@@H]2CC[C@H](c3cc(Nc4ccc5c(c4F)CNS5(=O)=O)n[nH]3)C2)o1 (relative stereo)" measurementkind=IC50 reportedmeasurement="> 10000 nM"
compound="CC(C)c1cnc(C2CCC(c3cc(Nc4ccc5c(c4)CS(=O)(=O)N5)n[nH]3)C2)o1 (single isomer, unassigned) [Example 138b]" measurementkind=IC50 reportedmeasurement="2420 nM"
compound="CC(C)(C)c1cncc(C2CCC(c3cc(Nc4ccc5c(c4F)CNS5(=O)=O)n[nH]3)C2)c1 (centres unmarked)" measurementkind=IC50 reportedmeasurement="> 10000 nM"
compound="CC(C)(C)c1ccc(C2CCC(c3cc(Nc4ccc5c(c4F)CNS5(=O)=O)[nH]n3)C2)nc1 (centres unmarked)" measurementkind=IC50 reportedmeasurement="> 10000 nM"
compound="CC(C)c1cnc(C2CCC(c3cc(Nc4ccc5c(c4F)CS(=O)(=O)N5)n[nH]3)C2)o1 (single isomer, unassigned) [Example 152b]" measurementkind=IC50 reportedmeasurement="4580 nM"
compound="CC(C)(C)c1cnc(C2CCC(c3cc(Nc4ccc(S(N)(=O)=O)cc4F)n[nH]3)C2)o1 (single isomer, unassigned) [Example 6a]" measurementkind=IC50 reportedmeasurement="2000 nM"
compound="CC(C)c1cnc(C2CCC(c3cc(Nc4ccc5c(c4F)CS(=O)(=O)N5)n[nH]3)C2)o1 (single isomer, unassigned) [Example 152a]" measurementkind=IC50 reportedmeasurement="238 nM"
compound=CN1c2ccc(Nc3cc([C@H]4CC[C@@H](c5ncc(C(C)(C)C)o5)C4)[nH]n3)cc2CS1(=O)=O measurementkind=IC50 reportedmeasurement="135 nM"
compound="CC(C)(C)c1cnc(C2CCC(c3cc(Nc4cc5c(cc4F)S(=O)(=O)NC5)n[nH]3)C2)o1 (single isomer, unassigned) [Example 17a]" measurementkind=IC50 reportedmeasurement="2090 nM"
compound="CC(C)(C)c1ccnc(C2CCC(c3cc(Nc4cc5c(cc4F)S(=O)(=O)NC5)n[nH]3)C2)n1 (centres unmarked)" measurementkind=IC50 reportedmeasurement="1060 nM"
compound="Cc1cc(C(C)(C)C)cc(C2CCC(c3cc(Nc4ccc5c(c4F)CS(=O)(=O)C5)n[nH]3)C2)n1 (centres unmarked)" measurementkind=IC50 reportedmeasurement="> 10000 nM"
